- Test system: XIP peptide (Xip251-270)
- Assay info: small-molecule binders of XIP peptide, primary screen, biochemical, small-molecule microarray, fluorescence 635/667 nm, 0.5 µg/mL protein (AID 1183)
- Assay setup: small-molecule microarray binding, fluorescence 635 nm; higher = more signal
Listing: composite z-score of selected compounds

Compound: COC(=O)C=C(CC(O)c1cccc(Cl)c1)OC (stereo not given)
composite z-score: 0.744
//
Compound: COc1ccc(COC2OC[C@]3(C)[C@H]4C5=C(CN3C(=O)OC(C)(C)C)[C@H](C)C(CO)C(CO)C5CC[C@@H]24)cc1 (stereo not given in full)
composite z-score: 0.505
//
Compound: CN1C(=O)C2C=CC(C(O)C3CC=CCC3)N(NC(=O)OC(C)(C)C)C2C1=O (stereo not given)
composite z-score: 0.539
//
Compound: O=C(NCc1ccccc1)[C@@]1(Cc2ccccc2)N=C(c2ccc(OCCCO)cc2)O[C@H]1c1ccccc1
composite z-score: 0.684
//
Compound: C=C(CCCC)C(=O)CC[C@H](OC(=O)c1cccnc1)c1ccccc1OCCO
composite z-score: 0.222

###

Listing: z-score of selected compounds
- Assay info: osmotic lysis modulators in infected erythrocytes, primary screen, PSAC antagonist project, cell-based, P. falciparum Indochina, OD700, 3 h (AID 1156)
- Assay setup: higher = more signal, called active from +8 up or from −8 down
Measured quantity: z-score

Compound: CC1CC/C=C\[C@H]2OC34C=CCN(C(C)(C)C)C(=O)[C@H]3N(CCCCCCO)C(=O)[C@@H]4C2C(=O)O1 (stereo partly specified)
Data value: 0.39
//
Compound: C=CCC(OC(C)=O)[C@@H]1[C@@H](N(Cc2ccc(-c3cccc(C(F)(F)F)c3)o2)C(=O)c2ccc(-c3ccccc3)cc2)c2cc(OCCCO)ccc2N1C(=O)c1ccc(-c2ccccc2)cc1 (stereo partly specified)
Data value: 0.0785
//
Compound: C=CCC(OC(C)=O)[C@@H]1[C@@H](N(Cc2cccc3ccccc23)C(=O)c2ccc(-c3ccccc3)cc2)c2cc(OCCCO)ccc2N1C(=O)Cc1ccc(OC)cc1 (stereo partly specified)
Data value: -1.02
//
Compound: C=CC[C@@]1(C(=O)NCc2ccccc2)N=C(c2ccc(OCCCO)cc2)O[C@@H]1c1ccccc1N=[N+]=[N-]
Data value: 3.73
//
Compound: COCCOC(=O)N1C(=O)[C@@]2(c3cc(C#Cc4ccc(OC)cc4)ccc31)[C@H](C(N)=O)[C@H]1C(=O)O[C@H](c3ccccc3)[C@H](c3ccccc3)N1[C@@H]2c1ccccc1OCCO
Data value: -0.499
//
Compound: [N-]=[N+]=Nc1ccccc1C[C@]1(C(=O)NCC(O)CO)N=C(c2ccc(OCCCO)cc2)O[C@H]1c1ccccc1N=[N+]=[N-] (stereo partly specified)
Data value: 0.581

###

- Assay info: inhibitors of hydroxyurea-induced Chk1 phosphorylation, primary screen, imaging, HeLa, phospho-Chk1 nuclear intensity (AID 1187)
- Assay setup: hydroxyurea-induced phospho-Chk1 immunofluorescence imaging, higher = more signal
Label 0 if z-score falls below -0.3; label 1 in every other case.

Molecule: CC(C)OC(=O)C=C1C[C@@H](c2ccccc2C(F)(F)F)O[C@@H](c2ccccc2C(F)(F)F)O1
Class name: 0
--
Molecule: [N-]=[N+]=NCc1ccccc1[C@H]1OC(c2ccc(OCCCO)cc2)=N[C@@]1(Cc1ccccc1)C(=O)NCc1ccccc1
Class name: 1
--
Molecule: CC1CC/C=C\[C@H]2OC34C=CCN(C(C)(C)C)C(=O)[C@H]3N(CCCCCCO)C(=O)[C@@H]4C2C(=O)O1 (some centres undefined)
Class name: 1
--
Molecule: COc1ccc([C@H]2OC[C@@H]3CC4(CC=CC4)C(=O)N32)cc1
Class name: 0
--
Molecule: CO[C@H]1O[C@H](CO)[C@@H](OC(=O)Nc2ccc(Br)cc2)[C@H](OC(=O)c2cc3ccccc3[nH]2)[C@H]1OC(=O)c1cc2ccccc2[nH]1
Class name: 0
--
Molecule: COCCOC(=O)N1C(=O)[C@@]2(c3cc(C#CC4=CCCCC4)ccc31)[C@H](C(=O)Nc1nc3ccccc3s1)[C@H]1C(=O)O[C@H](c3ccccc3)[C@H](c3ccccc3)N1[C@@H]2c1ccc(OCCO)cc1
Class name: 1
--
Molecule: COC(=O)[C@@]1(Cc2ccc(F)cc2)[C@H]2c3cc(C(=O)N(C)C)n(Cc4ccc(S(C)(=O)=O)cc4)c3C[C@H]2CN1C(=O)c1ccccc1
Class name: 1
--
Molecule: O=C1NC(=O)C2C1C=CC(C(O)Cc1ccccc1)N2Nc1ccc(Cl)cc1Cl (centres undefined)
Class name: 1
--
Molecule: C#CCN(CC1=CCCCC1)[C@H](c1ccccc1Br)[C@@H](O)Cc1ccccc1
Class name: 1
--
Molecule: CCCC=C(CCC)[C@@H](NC(=O)Oc1ccc(F)cc1)c1ccc(C(=O)OC)cc1
Class name: 1
--
Molecule: CC(=O)n1cc(C(O)C2C=CC3C(=O)N(C)C(=O)C3N2Nc2ccccc2)c2ccccc21 (centres undefined)
Class name: 0
--
Molecule: NCCCCCNC(=O)[C@@H]1C[C@@H]2C(=O)NCC(=O)N2[C@@H]1c1ccc(O)cc1
Class name: 0
--
Molecule: COc1ccc(C(O)C2C=CC3C(=O)N(c4ccccc4)C(=O)C3N2Nc2ccc(C(C)C)cc2)cc1OCc1ccccc1 (centres undefined)
Class name: 0
--
Molecule: C=C(CCCC)/C(=C/C[C@@H](OC(C)=O)c1ccccc1OCCO)c1cnc2ccccc2c1
Class name: 1
--
Molecule: COc1ccc(C(O)C2C=CC3C(=O)NC(=O)C3N2Nc2ccccn2)cc1 (centres undefined)
Class name: 1
--
Molecule: C=C(CCCC)C(=O)CC[C@H](OC(=O)c1cccnc1)c1ccccc1OCCO
Class name: 1
--
Molecule: CC(C)C(=C=CC[C@@H](O)c1ccccc1OCCO)CCO
Class name: 1
--
Molecule: COc1ccc([Si](C)(C)[C@H]2[C@H](CC(=O)N3CCC[C@H]3CO)O[C@@]3(C(=O)N(Cc4cccc(N5C(=O)c6cccc7cccc5c67)c4)c4ccccc43)[C@@H]2C)cc1
Class name: 0
--
Molecule: CCOC(=O)C[C@H]1[C@H](OC(=O)c2cc3ccccc3oc2=O)[C@@H](NC(=O)Cc2ccc(OC)cc2)c2cc(OCCCO)ccc2N1C(=O)c1ccccc1
Class name: 1
--
Molecule: COc1ccc(C#Cc2ccc3c(c2)[C@]2(C(=O)N3)[C@H](c3ccccc3OCCO)N3[C@H](c4ccccc4)[C@H](c4ccccc4)OC(=O)[C@H]3[C@@H]2C(=O)O)cc1
Class name: 0
--
Molecule: CCOC(=O)[C@H]1C/C=C/C[C@H](C(=O)OCC)C(=O)O[C@H]2[C@@H](OC)O[C@H](CO)[C@@H](OC(=O)Nc3cccc(F)c3)[C@@H]2OC1=O
Class name: 1
--
Molecule: CN(C)C(=O)[C@]1(Cc2ccccc2N=[N+]=[N-])N=C(c2ccc(OCCCO)cc2)O[C@@H]1c1ccccc1
Class name: 0
--
Molecule: C=CCNC(=O)[C@H]1[C@@H]2C(=O)O[C@@H](c3ccccc3)[C@@H](c3ccccc3)N2[C@@H](c2ccc(O)cc2)[C@]12C(=O)N(C(=O)OCCOC)c1ccc(C#CCNC(N)=O)cc12
Class name: 0
--
Molecule: CCCCCN1CC=CC23O[C@@H]4/C=C\CCCOC(=O)C4[C@H]2C(=O)N(CCCO)[C@@H]3C1=O (some centres undefined)
Class name: 0
--
Molecule: COCCCNC(=O)C1N=C(c2ccc(OCCCO)cc2)N(c2ccccc2)O1 (centres undefined)
Class name: 1
--
Molecule: COc1cc(OC)c(C(O)C2C=CC3C(=O)NC(=O)C3N2Nc2ccc(Cl)cc2Cl)cc1Br (centres undefined)
Class name: 1
--
Molecule: COCCOC(=O)N1C(=O)[C@@]2(c3cc(C#Cc4ccc(OC)cc4)ccc31)[C@H](C(N)=O)[C@H]1C(=O)O[C@H](c3ccccc3)[C@H](c3ccccc3)N1[C@@H]2c1ccccc1OCCO
Class name: 0
--
Molecule: COC(=O)[C@@]1(Cc2ccc(OC)cc2)[C@H]2c3cc(C(=O)N(C)C)n(Cc4cccc5ccccc45)c3C[C@H]2CN1C(=O)c1ccccc1
Class name: 1
--
Molecule: C=CCOC(=O)[C@H]1[C@@H]2C(=O)O[C@@H](c3ccccc3)[C@@H](c3ccccc3)N2[C@@H](c2ccc(OCCOC(=O)[C@H]3C[C@H]4C(=O)N5CCC[C@H]5C(=O)N4[C@H]3c3ccc(O)cc3)cc2)[C@]12C(=O)Nc1ccc(I)cc12
Class name: 1

Attribution: PubChem BioAssay
